Collected IC50 values appear next to each entry.
target_or_test_system: CDK9/cyclin T1 (Homo sapiens, UniProt P50750)
Sequence (O60563 whole entry): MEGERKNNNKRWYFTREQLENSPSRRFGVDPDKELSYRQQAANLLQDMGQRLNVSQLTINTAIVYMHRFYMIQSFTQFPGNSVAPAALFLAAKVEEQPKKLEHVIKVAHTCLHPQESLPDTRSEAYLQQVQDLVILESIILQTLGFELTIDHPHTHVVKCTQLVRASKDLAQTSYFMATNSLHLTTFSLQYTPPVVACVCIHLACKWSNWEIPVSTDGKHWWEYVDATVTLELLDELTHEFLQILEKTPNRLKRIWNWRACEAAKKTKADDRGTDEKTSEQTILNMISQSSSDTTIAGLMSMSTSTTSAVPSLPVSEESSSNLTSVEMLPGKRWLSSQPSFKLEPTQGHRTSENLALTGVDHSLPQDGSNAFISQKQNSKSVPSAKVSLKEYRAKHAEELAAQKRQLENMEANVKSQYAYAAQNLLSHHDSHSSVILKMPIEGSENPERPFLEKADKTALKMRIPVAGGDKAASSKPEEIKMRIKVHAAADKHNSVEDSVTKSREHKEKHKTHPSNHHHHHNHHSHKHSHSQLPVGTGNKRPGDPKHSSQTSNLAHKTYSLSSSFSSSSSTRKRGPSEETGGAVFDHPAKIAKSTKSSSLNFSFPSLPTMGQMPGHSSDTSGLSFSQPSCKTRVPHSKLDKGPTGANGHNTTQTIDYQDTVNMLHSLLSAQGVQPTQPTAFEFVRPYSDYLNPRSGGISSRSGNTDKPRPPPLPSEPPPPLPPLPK
Sequence (P50750 whole entry): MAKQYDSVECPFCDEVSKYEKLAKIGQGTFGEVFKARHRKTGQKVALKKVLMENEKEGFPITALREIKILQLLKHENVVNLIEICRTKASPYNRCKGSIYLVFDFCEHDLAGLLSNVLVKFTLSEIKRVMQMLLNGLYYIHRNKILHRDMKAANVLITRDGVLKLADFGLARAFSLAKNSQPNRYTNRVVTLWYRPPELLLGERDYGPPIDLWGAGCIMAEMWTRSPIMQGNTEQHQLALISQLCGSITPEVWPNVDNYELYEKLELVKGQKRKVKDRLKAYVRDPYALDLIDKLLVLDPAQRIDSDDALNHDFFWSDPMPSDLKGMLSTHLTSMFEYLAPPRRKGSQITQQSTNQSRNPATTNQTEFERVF
assay_explanation: Inhibition of human recombinant CDK9/cyclin T using YSPTSPSYSPTSPSYSPTSPSKKKK as substrate

The following compounds have reported results that may help.
{"columns": ["mol_smiles", "IC50"],
 "data": [
  ["NCCOCCOCCOc1ccc(NC2=N/C(=C\\c3ccc4c(c3)OCO4)C(=O)N2)cc1", "7.4 µM"],
  ["NCCOCCOCCOCCOc1ccc(NC2=N/C(=C\\c3ccc4c(c3)OCO4)C(=O)N2)cc1", "3.7 µM"],
  ["NCCOCCOCCO", "> 10 µM"],
  ["NCCOCCOCCOc1ccc(NC2=N/C(=C\\c3ccccc3)C(=O)N2)cc1", "> 10 µM"],
  ["O=C1NC(Nc2ccccc2)=N/C1=C\\c1ccc2c(c1)OCO2", "> 10 µM"]
]}

Please find the next compound below.
In: Checklist item: IC50 tested on CDK9/cyclin T1 (Homo sapiens, UniProt P50750), entry O=C1NC(Nc2ccccc2)=N/C1=C\c1ccccc1 , value?
Out: > 10 µM
